B1: r16_88_TrROS_Hall (parent)
chain: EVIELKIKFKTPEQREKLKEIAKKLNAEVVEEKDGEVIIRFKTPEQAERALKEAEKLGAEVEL

- Variants of: B1
- assayExplanation: folding stability dG (cDNA display proteolysis); higher = more stable
- assayContext: PBS, room temperature
Here, each record is paired with measured folding stability dG data.
measuredMetric: folding stability dG (kcal/mol)

mutant	measuredMetric	valueReported
K8N	folding stability dG	4.08
G58E	folding stability dG	4.12
V61F	folding stability dG	4.05
E62V	folding stability dG	4.35
L18E	folding stability dG	1.57
F9S	folding stability dG	3.85
G58H	folding stability dG	4.27
T11H	folding stability dG	4.42
K24A	folding stability dG	4.28
K17F	folding stability dG	4.57
A54I	folding stability dG	4.43
I3M	folding stability dG	4.63
K23G	folding stability dG	4.43
K19Y	folding stability dG	4.89
R49V	folding stability dG	4.5
K52P	folding stability dG	3.91
